- System: Rattus norvegicus
- assay: Antidiuretic activity was determined in water loaded, ethanol-anesthetized rats.
- Format: functional, Urine
Where a SMILES comes first, the peptide text is derived from it. Bridges are numbered along the chain shown (N, C = ends). [ ]: non-standard residue; d: D form. Mpa = O=C(O)CCS
Kindly return yes (1) if reported Antidiuretic activity is no lower than 20 U/mg; return no (0) if it is lower.

{"molecule": "CC[C@H](C)[C@@H]1NC(=O)[C@@H](Cc2ccc(O)cc2)NC(=O)CCSSC[C@@H](C(=O)N[C@H](CCCCNC(=O)CCCCC2SCC3NC(=O)NC32)C(=O)N[C@@H](CCCN=C(N)N)C(=O)NCC(N)=O)NC(=O)[C@H](CC(N)=O)NC(=O)[C@@H](CCC(N)=O)NC1=O (stereo not given in full)", "class": "no (0)"}
{"molecule": "CC[C@H](C)[C@@H]1NC(=O)[C@H](Cc2ccc(O)cc2)NC(=O)CCSSC[C@@H](C(=O)N[C@@H](CCCCN)C(=O)N[C@@H](CCCN=C(N)N)C(=O)NCC(N)=O)NC(=O)[C@H](CC(N)=O)NC(=O)[C@H](CCC(N)=O)NC1=O ([Mpa]YIQNCKRG-NH2; disulfide 1-6)", "class": "yes (1)"}
{"molecule": "CC[C@H](C)[C@@H]1NC(=O)[C@H](Cc2ccc(O)cc2)NC(=O)[C@@H](N)CSSC[C@@H](C(=O)N2CCC[C@H]2C(=O)N[C@@H](CCCN=C(N)N)C(=O)NCC(N)=O)NC(=O)[C@H](CC(N)=O)NC(=O)[C@H](CCC(N)=O)NC1=O [VASOTOCIN] (H-CYIQNCPRG-NH2; disulfide 1-6)", "class": "yes (1)"}

Q: Could you verify whether the entry CC[C@H](C)[C@@H]1NC(=O)[C@H](Cc2ccc(O)cc2)NC(=O)CCSSC[C@@H](C(=O)N2CCC[C@H]2C(=O)N[C@@H](CCCN=C(N)N)C(=O)NCC(N)=O)NC(=O)[C@H](CC(N)=O)NC(=O)[C@H](CCC(N)=O)NC1=O ([Mpa]YIQNCPRG-NH2; disulfide 1-6) shows Antidiuretic activity of no less than 20 U/mg?
Ans: yes (1)
